target: GlyT2 (Rattus norvegicus); construct: expressed in transfected cells; test: FLIPR membrane potential assay for GlyT2 target activity (T-rex-293-rGlyT2 cells); format: cell-based; details: 10 uM compound, then glycine; relative to ORG25543 (500 nM) defined as 100%; read-out: GlyT2 % inhibition
Sequence (P58295 whole entry): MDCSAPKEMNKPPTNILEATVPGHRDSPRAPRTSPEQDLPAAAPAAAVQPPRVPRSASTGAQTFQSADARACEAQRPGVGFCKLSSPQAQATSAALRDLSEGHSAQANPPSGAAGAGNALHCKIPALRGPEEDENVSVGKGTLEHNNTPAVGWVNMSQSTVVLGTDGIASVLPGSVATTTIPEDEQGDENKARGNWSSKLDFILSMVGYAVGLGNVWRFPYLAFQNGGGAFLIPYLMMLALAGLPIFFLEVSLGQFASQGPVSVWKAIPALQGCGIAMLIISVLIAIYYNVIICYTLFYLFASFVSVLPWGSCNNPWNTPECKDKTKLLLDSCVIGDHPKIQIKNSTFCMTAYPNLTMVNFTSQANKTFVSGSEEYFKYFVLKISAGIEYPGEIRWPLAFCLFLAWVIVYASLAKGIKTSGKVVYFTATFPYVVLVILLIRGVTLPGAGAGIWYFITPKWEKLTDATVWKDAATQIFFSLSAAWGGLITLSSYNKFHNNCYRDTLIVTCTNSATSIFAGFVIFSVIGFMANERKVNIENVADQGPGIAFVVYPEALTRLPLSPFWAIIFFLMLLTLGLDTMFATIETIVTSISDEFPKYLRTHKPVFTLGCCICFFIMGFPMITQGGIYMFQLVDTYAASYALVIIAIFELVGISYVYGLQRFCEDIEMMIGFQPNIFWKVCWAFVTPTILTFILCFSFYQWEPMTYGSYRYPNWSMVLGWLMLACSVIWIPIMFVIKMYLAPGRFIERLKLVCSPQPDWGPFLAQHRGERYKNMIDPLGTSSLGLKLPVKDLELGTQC
Quick rule: inhibition at 10 µM of at least 60% means label 1, below that means label 0.

• CCN1CCC[C@@H]1CNC(=O)c1cc(OC)c(OCc2ccccc2)c(OC)c1 [VVZ-012] = label 1
• Cc1cc(C(=O)NC(CN2CCOCC2)c2ccccc2)cc(C)c1OCc1ccccc1 (centres unmarked) [VVZ-080] = label 0
• CCCCOc1c(OC)cc(C(=O)NCC2(NC)CCOCC2)cc1OC [VVZ-068] = label 1
• COc1cc(C(=O)NC2CCN(Cc3ccccc3)C2)cc(OC)c1OCc1ccccc1 (centres unmarked) [VVZ-013] = label 1
• CCCCOc1c(OC)cc(C(=O)NCC2(N(C)CC)CCOCC2)cc1OC [VVZ-041] = label 1
• COc1cc(N)c(Cl)cc1C(=O)N[C@H]1CN2CCC1CC2 [VVZ-047] = label 0

Q. Hello, I need to know if COc1cc(N)c(Cl)cc1C(=O)NCC1(O)CCN(C)CC1 [VVZ-055] has measured inhibition at 10 µM not below 60%. Thanks!
A. label 0

Q. Hello, I need to know if CCN1CCC[C@H]1CNC(=O)c1cc(OC)c(OCc2ccccc2)c(OC)c1 [VVZ-014] has measured inhibition at 10 µM not below 60%. Thanks!
A. label 1

###

biological target: GlyT2 (Rattus norvegicus); construct: expressed in transfected cells; test: FLIPR membrane potential assay for GlyT2 target activity (T-rex-293-rGlyT2 cells); format: cell-based; conditions: 10 uM compound, then glycine; relative to ORG25543 (500 nM) defined as 100%; read-out: GlyT2 % inhibition
Observable: inhibition at 10 µM (%)
Give just the number in %; leave the unit off.

Use these answered entries as a reference point.
* CCCCOc1c(OC)cc(C(=O)NCC(c2ccc(OC)cc2)N(C)C)cc1OC (stereo not drawn) | 96.7
* O=C(c1cccc(C(F)(F)F)c1)N1CCN(CCc2ccccc2)CC1 | 34.4
* COc1cc(C(=O)NCC(c2ccccc2)N2CCCC2)cc(OC)c1OCc1ccccc1 (stereo not drawn) | 84.8
* COc1ccc(C(CNC(=O)c2cc(OC)c(OCc3ccccc3)c(OC)c2)N2CCCC2)cc1 (stereo not drawn) | 108
* CCCCOc1c(C)cc(C(=O)NCC2(O)CCN(C)CC2)cc1C | 59.6
* COc1cc(C(=O)N[C@@H]2CCN(Cc3ccccc3)C2)cc(OC)c1OCc1ccccc1 | 88.8
* COc1cc(C(=O)NCCN2CCOCC2)cc(OC)c1OCc1ccccc1 | 48.9
* COc1cc(C(=O)N[C@H]2CN3CCC2CC3)cc(OC)c1OCc1ccccc1 | 78.2

The record that follows has no inhibition at 10 µM shown yet.
Q. Complete the entry with inhibition at 10 µM for `Cc1cc(C(=O)NCC2(O)CCN(C)CC2)cc(C)c1OCc1ccccc1`
A. 82.9

###

molecular target: 5HT2A (Homo sapiens, UniProt P28223); assay: FLIPR calcium assay for 5HT2A target activity (transfected HEK293 cells); format: cell-based; settings: HEK293, read-out: 5HT2A % inhibition
Sequence (P28223 whole entry, species assumed): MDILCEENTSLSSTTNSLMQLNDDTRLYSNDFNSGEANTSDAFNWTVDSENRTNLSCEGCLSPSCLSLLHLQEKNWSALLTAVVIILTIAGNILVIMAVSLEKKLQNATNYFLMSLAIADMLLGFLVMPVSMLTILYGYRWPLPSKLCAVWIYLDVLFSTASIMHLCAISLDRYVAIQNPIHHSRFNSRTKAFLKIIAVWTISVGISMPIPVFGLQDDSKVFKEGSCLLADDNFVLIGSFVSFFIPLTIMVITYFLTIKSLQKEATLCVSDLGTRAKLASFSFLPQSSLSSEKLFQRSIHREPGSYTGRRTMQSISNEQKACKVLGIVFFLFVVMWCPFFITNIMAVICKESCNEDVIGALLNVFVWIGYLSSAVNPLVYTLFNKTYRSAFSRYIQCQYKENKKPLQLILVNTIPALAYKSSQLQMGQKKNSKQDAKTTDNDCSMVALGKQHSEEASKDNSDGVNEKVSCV
Examples of compounds with documented inhibition at 10 µM follow.
Give just the number in %; leave the unit off.

Use these answered entries as a reference point.
* COc1cc(C(=O)NCC2(N3CCN(C)CC3)CCOCC2)cc(OC)c1OCc1ccccc1 | 60.8
* COc1cc(C(=O)NCC2(N3CCOCC3)CCOCC2)cc(OC)c1OCc1ccccc1 | 155
* COc1cc(C(=O)NCC2(N(C)C)CC=C(F)CC2)cc(OC)c1OCc1ccccc1 (stereo not shown) | 93.9
* CCCCOc1c(OC)cc(C(=O)NCC(c2ccc(OC)cc2)N(C)C)cc1OC (stereo not shown) | 70.5
* CCCCOc1ccc(C(=O)NCC(c2ccccc2)N(C)C)cc1 (stereo not shown) | 103

Q. Complete the entry with inhibition at 10 µM for `Cc1cc(C(=O)NCC2(N(C)C)CCC(F)(F)CC2)cc(C)c1OCc1ccccc1`
A. 134

Q. Complete the entry with inhibition at 10 µM for CN(C)C(CNC(=O)c1ccc(OCc2ccccc2)cc1)c1ccccc1 (stereo not shown)
A. 95

Q. Complete the entry with inhibition at 10 µM for CCCCOc1c(C)cc(C(=O)NCC(c2ccccc2)N(C)C)cc1C (stereo not shown)
A. 65.7

Q. Complete the entry with inhibition at 10 µM for `O=C(NCC1(N2CCOCC2)CCOCC1)c1ccc(OCc2ccccc2)cc1`
A. 113

Q. Complete the entry with inhibition at 10 µM for O=C(NCC(c1ccccc1)N1CCOCC1)c1ccc(OCc2ccccc2)cc1 (stereo not shown)
A. 71.5

Q. Complete the entry with inhibition at 10 µM for Cc1cc(C(=O)NCC(c2ccccc2)N(C)C)cc(C)c1OCc1ccccc1 (stereo not shown)
A. 54.2

Q. Complete the entry with inhibition at 10 µM for COc1cc(C(=O)NCC(c2ccccc2)N(C)C)cc(OC)c1OCc1ccccc1 (stereo not shown)
A. 94.1

Q. Complete the entry with inhibition at 10 µM for `COc1cc(C(=O)NCC2(N(C)C)CCC(F)(F)CC2)cc(OC)c1OCc1ccccc1`
A. 97.5

###

molecular target: 5HT2A (Homo sapiens); experiment: FLIPR calcium assay for 5HT2A target activity (transfected HEK293 cells); format: cell-based; conditions: HEK293, read-out: 5HT2A % inhibition
Examples of compounds with documented inhibition at 10 µM follow.
Give just the number in %; leave the unit off.

Use these answered entries as a reference point.
• Cc1cc(C(=O)NCC2(N3CCN(C)CC3)CCCCC2)cc(C)c1OCc1ccccc1 = 76.7
• CN1CCN(C2(CNC(=O)c3ccc(OCc4ccccc4)cc3)CCCCC2)CC1 = 150
• COc1cc(C(=O)NCC(c2ccccc2)N2CCOCC2)cc(OC)c1OCc1ccccc1 (centres unmarked) = 70.7
• CN1CCN(C2(CNC(=O)c3ccc(OCc4ccccc4)cc3)CCOCC2)CC1 = 101

The record that follows has no inhibition at 10 µM shown yet.
Q. Fill in inhibition at 10 µM for `CCCCOc1c(OC)cc(C(=O)NCC2(N(C)C)CCOCC2)cc1OC` tested with 5HT2A (Homo sapiens).
A. 61.2

###

target: UniProt:P28223; assay: FLIPR calcium assay for 5HT2A target activity (transfected HEK293 cells); assay type: cell-based; details: HEK293; 10 uM compound, then serotonin; relative to MDL11939 (100 nM) defined as 100%; read-out: 5HT2A % inhibition
Observable: inhibition at 10 µM (%)
Give just the number in %; leave the unit off.

- COc1cc(N)c(Cl)cc1C(=O)N[C@H]1CN2CCC1CC2 [VVZ-047]: 78.8
- COc1cc(C(=O)N[C@H]2CN3CCC2CC3)cc(OC)c1OCc1ccccc1 [VVZ-003]: 31.6
- COc1cc(C(=O)NCC2CCCCN2C)cc(OC)c1OCc1ccccc1 (stereo not shown) [VVZ-009]: 90.4
- COc1cc(C(=O)NCC(c2ccccc2)N2CCCC2)cc(OC)c1OCc1ccccc1 (stereo not shown) [VVZ-035]: 101
- CCCCOc1c(OC)cc(C(=O)NCC2(NC)CCOCC2)cc1OC [VVZ-068]: 69.1

Q. Complete the entry with inhibition at 10 µM for CCCCOc1c(C)cc(C(=O)NCC2(O)CCN(C)CC2)cc1C [VVZ-053]
A. 31.4

Q. Complete the entry with inhibition at 10 µM for COc1cc(C(=O)NCC2(NCc3ccccc3)CCOCC2)cc(OC)c1OCc1ccccc1 [VVZ-084]
A. 94.4

Q. Complete the entry with inhibition at 10 µM for CCN(C)C1(CNC(=O)c2cc(OC)c(OCc3ccccc3)c(OC)c2)CC=C(F)CC1 (stereo not shown) [VVZ-050]
A. 108

Q. Complete the entry with inhibition at 10 µM for CCCCOc1c(OC)cc(C(=O)NC[C@H]2CCCN2CC)cc1OC [VVZ-029]
A. 71.3

###

target: 5HT2A (Homo sapiens, UniProt P28223); experiment: FLIPR calcium assay for 5HT2A target activity (transfected HEK293 cells); type: cell-based; details: HEK293; 10 uM compound, then serotonin; relative to MDL11939 (100 nM) defined as 100%; read-out: 5HT2A % inhibition
Examples of molecules with documented inhibition at 10 µM follow.
Give just the number in %; leave the unit off.

Use these answered entries as a reference point.
* CCCCOc1c(OC)cc(C(=O)NCC2(N(C)CC)CCOCC2)cc1OC | 105
* Cc1cc(C(=O)NCC2(O)CCN(C)CC2)cc(C)c1OCc1ccccc1 | 57.1
* CCN1CCC[C@H]1CNC(=O)c1cc(OC)c(OCc2ccccc2)c(OC)c1 | 93.6
* COc1ccc(C(CNC(=O)c2cc(OC)c(OCc3ccccc3)c(OC)c2)N2CCCC2)cc1 (stereo not shown) | 57
* COc1cc(C(=O)N[C@@H]2CCN(Cc3ccccc3)C2)cc(OC)c1OCc1ccccc1 | 56.2

Q. Fill in inhibition at 10 µM for COc1cc(C(=O)NC2CCN(Cc3ccccc3)C2)cc(OC)c1OCc1ccccc1 (stereo not shown) tested with 5HT2A (Homo sapiens, UniProt P28223).
A. 48.5

Q. Fill in inhibition at 10 µM for Cc1cc(C(=O)NC(CN2CCOCC2)c2ccccc2)cc(C)c1OCc1ccccc1 (stereo not shown) tested with 5HT2A (Homo sapiens, UniProt P28223).
A. 113

Q. Fill in inhibition at 10 µM for `O=C(c1cccc(C(F)(F)F)c1)N1CCN(CCc2ccccc2)CC1` tested with 5HT2A (Homo sapiens, UniProt P28223).
A. 107

Q. Fill in inhibition at 10 µM for `COc1cc(N)c(Cl)cc1C(=O)NCC1(O)CCN(C)CC1` tested with 5HT2A (Homo sapiens, UniProt P28223).
A. 146

Q. Fill in inhibition at 10 µM for `CCN1CCC[C@@H]1CNC(=O)c1cc(OC)c(OCc2ccccc2)c(OC)c1` tested with 5HT2A (Homo sapiens, UniProt P28223).
A. 76.1

Sourced from patent US9359346B2
